- System: SW-620 colon
- test.details: NCI-60 one-dose screen, 48 h
- condition.info: 10 µM
This is part of a sample that, as a whole, favours compounds with a hit. Of some 83,000 tested, about 20% had one in any assay. Activity calls are given as the source filed them. How the source made its calls: active means growth percent below 10; inactive means the rest.
Classes used: yes = active, no = inactive

{"molecule": "CCCCCCCCCCCCCCCCn1cc[n+](C)c1", "class": "yes"}
{"molecule": "O=[N+]([O-])c1ccc(Br)o1", "class": "no"}
{"molecule": "Nc1c(CNCc2nnn(Cc3ccccc3)c2N)nnn1Cc1ccccc1", "class": "no"}
{"molecule": "CC(C)C(C)C(N)C(=O)O (stereo not drawn)", "class": "no"}
{"molecule": "CC1(CO)CCCC12OCCO2 (stereo not drawn)", "class": "no"}
{"molecule": "COc1cc(OC)cc(-c2ccc(-c3ccc(C(=N)N)cn3)o2)c1", "class": "yes"}
{"molecule": "Cc1ccc2nc(-c3ccc(OCC(=O)N=Nc4c(O)[nH]c5ccccc45)cc3)[nH]c2c1", "class": "yes"}
{"molecule": "CCOC(=O)/C(C#N)=C(/C)C1CC1", "class": "no"}
{"molecule": "COc1ccc(-c2[nH]ncc2-c2cc(OC)c(OC)c(OC)c2)cc1", "class": "no"}
{"molecule": "O=c1cc(CSc2nnc(-c3ccccc3)n2-c2ccc(F)cc2)c2ccc3ccccc3c2o1", "class": "no"}
{"molecule": "COc1ccc(-c2nc(NC(=O)CS(=O)(=O)c3ccc(F)cc3)sc2C)cc1", "class": "no"}
{"molecule": "CCNC(=S)NN", "class": "no"}
{"molecule": "COc1cc(C2C(C#N)=C(c3c[nH]c4ccccc34)Nc3nc(N)[nH]c(=O)c32)cc(OC)c1OC (stereo not drawn)", "class": "no"}
{"molecule": "Cc1ccccc1[P+](Cc1ccccc1)(c1ccccc1)c1ccccc1", "class": "no"}
{"molecule": "Nc1ccc(Sc2ccc3c4c2cccc4c(=O)n2c4ccccc4nc32)cc1", "class": "no"}
{"molecule": "Cc1ccc(S(=O)(=O)N2CCc3ccccc3CC2)cc1", "class": "no"}
{"molecule": "O=C(CCCC(=O)N/N=C/c1cc(Cl)ccc1O)N/N=C\\c1cc(Cl)ccc1O", "class": "no"}
{"molecule": "CS(=O)(=O)Nc1ccc(Nc2c3ccccc3nc3cc(Cl)ccc23)cc1", "class": "no"}
{"molecule": "O=C(NNC(=O)c1ccncc1)Nc1ccc([N+](=O)[O-])cc1", "class": "no"}
{"molecule": "O=C(Nc1ccc(OCc2nnc(-c3ccccc3)o2)c(F)c1)Nc1ccc(Cl)c(Cl)c1", "class": "no"}
{"molecule": "COc1ccc(-c2nnc(SCC(=O)c3ccccc3)o2)cc1", "class": "no"}
{"molecule": "COc1ccc(C2=Cc3ccc(OC(C)=O)cc3OC2)cc1", "class": "no"}
{"molecule": "COc1ccc(C2C=C(c3ccc(OC)c(OC)c3)N=C3SC=CN32)c(Br)c1 (stereo not drawn)", "class": "no"}

* * *

Below is a list of entries, each paired with its recorded growth value.
- Test system: TK-10 renal
- test.details: NCI-60 one-dose screen, 48 h (100 = growth as untreated, 0 = no growth, -100 = all killed)
- condition.info: 10 µM
About 83,000 compounds went through this panel and 20% of them were active in at least one assay; those are over-represented in the sample as a whole. Calls of active or inactive are those of the source. Rule for the calls: active = growth percent below 10; inactive = the rest.

{"structure": "COc1cc(-c2cc(-c3ccc(C)cc3)nc3nc(N)[nH]c(=O)c23)ccc1Oc1ccnc2cc(Cl)ccc12", "study.target": "TK-10 renal", "growth": "120% (inactive)"}
{"structure": "CC(C)C[C@H](NC(=O)CCn1ccc2ccccc2c1=O)B(O)O", "study.target": "TK-10 renal", "growth": "12.8% (inactive)"}
{"structure": "CCCCNC(=O)Oc1ccc(/C(=C(\\C)c2ccc(OC)cc2)c2ccc(OCCN3CCCCC3)cc2)cc1", "study.target": "TK-10 renal", "growth": "102% (inactive)"}
{"structure": "CC(C)OCc1cc(CN2CCN(c3cccc(Cl)c3)CC2)c(O)c2ncccc12", "study.target": "TK-10 renal", "growth": "5.04% (active)"}
{"structure": "CC(C)c1ncc(CO)n1Cc1c(Cl)cccc1Cl", "study.target": "TK-10 renal", "growth": "95% (inactive)"}
